Where these numbers come from: PubChem BioAssay

Experiment: MM1S myeloma cell viability, profiling panel, resazurin fluorescence, basal, 24 h, PK04 Diversity Set (AID 1174);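 note: MM1S multiple myeloma cell line; test concentration not given here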
Settings: higher = more signal, called active from +8 up or from −8 down
Kindly return Fulfilled if reported z-score is no lower than -0.7; return Not fulfilled if it is lower.

Cc1ccc(S[C@]2(C(=O)NCC(F)(F)F)CC(=O)N(Cc3ccccc3)[C@@H]2c2ccc(CO)cc2)cc1	Fulfilled
NC(=O)NCC#Cc1ccc2c(c1)[C@]1(C(=O)N2)[C@H](C(=O)O)[C@H]2C(=O)O[C@H](c3ccccc3)[C@H](c3ccccc3)N2[C@@H]1c1ccccc1OCCO	Fulfilled
O=C1NC(=O)C2C1C=CC(C(O)c1ccc(Br)cc1)N2Nc1ccccn1 (configuration not stated)	Not fulfilled

Q) Please indicate if the recorded z-score for CN1C(=O)C2C(C1=O)C1C=C(c3ccc(CO)cc3)C2C(c2cccs2)N1Cc1cccc(OC(F)(F)F)c1 (configuration not stated) meets or exceeds -0.7.
A) Not fulfilled

Q) I'd appreciate it if you could say whether Cc1c(NC(=O)/C(C#N)=C/C=C/c2ccccc2[N+](=O)[O-])c(=O)n(-c2ccccc2)n1C has z-score at least equal to -0.7.
A) Not fulfilled

Q) Entry CO[C@H]1O[C@H](CO)[C@@H](OC(=O)Nc2ccccc2-c2ccccc2)[C@H](OC(=O)Nc2ccc3c(c2)OCO3)[C@@H]1OC(=O)Nc1ccc2c(c1)OCO2 : is its z-score no less than -0.7?
A) Not fulfilled

Q) Is the recorded value of z-score equal to or greater than -0.7 for this molecule? COCCOC(=O)N1C(=O)[C@@]2(c3cc(C#Cc4ccc(OC)cc4)ccc31)[C@H](C(=O)N1CCCCCCC1)[C@H]1C(=O)O[C@H](c3ccccc3)[C@H](c3ccccc3)N1[C@@H]2c1ccc(O)cc1
A) Fulfilled

* * *

Each record here notes measured composite z-score.
Tested on: Human papillomavirus type 1a E7 protein (residues 1-88)
Test: HPV1a E7 small-molecule binders, primary screen, biochemical, small-molecule microarray, residues 1-88, 635 nm (AID 1129)
Conditions: small-molecule microarray binding, fluorescence 635 nm; higher = more signal
// print number alone

Q) Entry NC(N)=NCc1cn(CCc2c[nH]c3ccccc23)nn1 has what composite z-score?
A) 0.599

Q) Look up composite z-score: CC1CC/C=C\[C@H]2OC34C=CCN(C(C)C)C(=O)[C@H]3N(CCCCCO)C(=O)[C@@H]4C2C(=O)O1 (stereo partly specified)
A) -1.71

* * *

Test: COS7 lysate on small-molecule microarray, probe aHis, 635 nm (AID 1123);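 note: z-score combines 667nm fluorescence intensity with signal-to-noise per printed compound spot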
Details: COS7 cell lysate, fluorescence, higher = more signal
Quantity Name: composite z-score
Lab note: write the figure by itself, no unit.

Please review the entries below; each comes with its answer.
CN(C)CCCNC(=O)[C@@H]1c2ccccc2C(=O)N(CC23CC4CC(CC(C4)C2)C3)[C@H]1c1ccc(CO)cc1	2.62
COC(=O)C1(Cc2ccccc2)C=C2C(=C(c3ccccc3)C(=O)C2C)CN1 (stereo not drawn)	2.3
C=C(C(=O)CC[C@H](OC(C)=O)c1cccc(OCCO)c1)C(C)C	0.409
COC(=O)[C@@]1(Cc2ccc(OC)cc2)[C@H]2c3cc(C(=O)N(C)C)n(CCc4c[nH]c5ccc(O)cc45)c3C[C@H]2CN1C(=O)c1ccccc1	2.88
CCCN1C(=O)[C@]2(Cc3ccccc3)N=C(c3ccc(OCCCO)cc3)O[C@@H]2c2ccccc21	1.86

Q) Which measured composite z-score value corresponds to COCCOC(=O)N1C(=O)[C@@]2(c3cc(C#Cc4ccc(OC)cc4)ccc31)[C@H](C(=O)N1CCN(c3ncccn3)CC1)[C@H]1C(=O)O[C@H](c3ccccc3)[C@H](c3ccccc3)N1[C@@H]2c1ccccc1OCCO ?
A) 1.3

Q) # query: composite z-score of entry CCCCN1CC=CC23O[C@@H]4C=CCOC(=O)[C@@H]4[C@H]2C(=O)N(C(C)CO)[C@@H]3C1=O (stereo partly drawn)
A) -0.819

Q) Record request: composite z-score value, item C=C[C@@H](COC(C)=O)NS(=O)(=O)c1ccc(Br)cc1
A) 0.151
